# study-target: T1, monkey GPC3-His protein (monkey)
# T1 construct: Bought protein; also called monkey GPC3 protein
# method-summary: ELISA, monkey GPC3-His coated; antibody 13.33 nM
OD450 nm listing for selected binders.
Provide a numeric answer; units are not to be included.

Examples from the recorded data:
- binder: "hAb001H1aL1b (antibody, human IgG1, V domains shown, Humanized F2.169.2, H1a+L1b) VH: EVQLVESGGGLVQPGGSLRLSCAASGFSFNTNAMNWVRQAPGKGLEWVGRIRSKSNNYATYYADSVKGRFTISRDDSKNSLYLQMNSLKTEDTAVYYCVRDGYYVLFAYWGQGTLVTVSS VL: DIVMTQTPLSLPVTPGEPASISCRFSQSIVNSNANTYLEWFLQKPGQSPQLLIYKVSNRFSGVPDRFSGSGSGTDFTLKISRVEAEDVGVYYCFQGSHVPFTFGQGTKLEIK"
  OD450 nm: 2.54
- binder: "hAb001H2L1a (antibody, human IgG1, V domains shown, Humanized F2.169.2, H2+L1a) VH: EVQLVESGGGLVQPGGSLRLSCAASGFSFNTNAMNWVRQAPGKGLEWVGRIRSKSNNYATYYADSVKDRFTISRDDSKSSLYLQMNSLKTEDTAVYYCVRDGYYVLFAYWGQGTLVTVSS VL: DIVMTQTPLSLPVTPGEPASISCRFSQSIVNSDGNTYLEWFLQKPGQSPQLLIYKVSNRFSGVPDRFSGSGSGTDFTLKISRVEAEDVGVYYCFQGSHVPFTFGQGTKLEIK"
  OD450 nm: 2.34
- binder: "hAb001H2L1b (antibody, human IgG1, V domains shown, Humanized F2.169.2, H2+L1b) VH: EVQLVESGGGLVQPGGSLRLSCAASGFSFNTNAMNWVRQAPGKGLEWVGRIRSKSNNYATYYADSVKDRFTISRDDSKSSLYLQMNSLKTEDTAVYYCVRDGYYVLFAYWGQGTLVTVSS VL: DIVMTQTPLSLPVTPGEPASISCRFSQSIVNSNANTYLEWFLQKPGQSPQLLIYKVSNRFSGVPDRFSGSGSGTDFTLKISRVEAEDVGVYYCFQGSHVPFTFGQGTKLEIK"
  OD450 nm: 2.47

Problem: Dear colleague, I am looking for the recorded OD450 nm of the following binder: hAb003LH2L1b (antibody, human IgG1, V domains shown, Humanized F2.154.1, H2+L1b) VH: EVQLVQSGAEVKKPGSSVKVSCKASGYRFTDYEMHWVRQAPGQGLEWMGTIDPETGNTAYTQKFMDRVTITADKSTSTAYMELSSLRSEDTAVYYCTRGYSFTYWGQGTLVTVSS VL: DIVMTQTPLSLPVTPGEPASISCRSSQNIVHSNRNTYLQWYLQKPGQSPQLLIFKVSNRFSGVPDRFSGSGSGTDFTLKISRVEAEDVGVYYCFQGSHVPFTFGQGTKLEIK
Result: 2.27

Problem: Now the binder hAb001H1L1 (antibody, human IgG1, V domains shown, Humanized F2.169.2, H1+L1) VH: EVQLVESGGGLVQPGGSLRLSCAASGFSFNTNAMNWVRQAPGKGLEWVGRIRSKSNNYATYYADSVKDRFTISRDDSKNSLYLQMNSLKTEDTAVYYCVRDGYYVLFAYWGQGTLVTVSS VL: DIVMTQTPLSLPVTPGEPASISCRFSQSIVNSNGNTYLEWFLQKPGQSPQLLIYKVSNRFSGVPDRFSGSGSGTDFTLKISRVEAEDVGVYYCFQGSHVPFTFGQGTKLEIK
Result: 2.55

Problem: Now the binder hAb001H1aL1 (antibody, human IgG1, V domains shown, Humanized F2.169.2, H1a+L1) VH: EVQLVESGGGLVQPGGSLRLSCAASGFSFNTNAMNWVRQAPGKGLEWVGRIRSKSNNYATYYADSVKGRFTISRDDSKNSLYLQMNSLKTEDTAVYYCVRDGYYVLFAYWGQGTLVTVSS VL: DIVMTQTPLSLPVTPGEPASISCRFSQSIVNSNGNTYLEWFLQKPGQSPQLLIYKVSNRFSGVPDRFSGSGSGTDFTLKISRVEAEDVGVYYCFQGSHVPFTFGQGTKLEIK
Result: 2.52

Problem: Now the binder hAb001H1aL1a (antibody, human IgG1, V domains shown, Humanized F2.169.2, H1a+L1a) VH: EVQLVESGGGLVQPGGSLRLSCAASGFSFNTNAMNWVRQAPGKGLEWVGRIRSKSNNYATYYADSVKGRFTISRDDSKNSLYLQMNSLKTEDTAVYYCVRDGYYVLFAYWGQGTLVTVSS VL: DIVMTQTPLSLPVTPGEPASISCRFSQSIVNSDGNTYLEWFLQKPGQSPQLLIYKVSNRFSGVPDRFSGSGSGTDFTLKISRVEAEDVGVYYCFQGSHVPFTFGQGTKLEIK
Result: 2.42
